These entries and their values trace back to the NIST ThermoML archive (doi:10.1021/je301284x).

details: 383.15 K; 101.33 kPa; Liquid; Concentric cylinders viscometry
reported_property: viscosity (mPa·s)

compound	viscosity (mPa·s)
CC[NH+](C)CC.O=S(=O)([O-])C(F)(F)F [diethylmethylammonium trifluoromethanesulfonate]	5.82
CCC[NH+](C)C.O=S(=O)([O-])C(F)(F)F [N,N-dimethylpropan-1-aminium trifluoromethanesulfonate]	5.32
C=CC[NH+](CC)CC.O=S(=O)([O-])C(F)(F)F [N,N-diethylprop-2-en-1-aminium trifluoromethanesulfonate]	6.7
C=CC[NH+](C)C.O=S(=O)([O-])C(F)(F)F [N,N-dimethylprop-2-en-1-aminium trifluoromethanesulfonate]	5.18

###

conditions: 423.15 K; 101.33 kPa; Liquid; Concentric cylinders viscometry
reported_property: viscosity (mPa·s)

compound	quantitative_result
C=CC[NH+](C)C.O=S(=O)([O-])C(F)(F)F [N,N-dimethylprop-2-en-1-aminium trifluoromethanesulfonate]	3.17
C=CC[NH+](CC)CC.O=S(=O)([O-])C(F)(F)F [N,N-diethylprop-2-en-1-aminium trifluoromethanesulfonate]	3.87
CC[NH+](C)CC.O=S(=O)([O-])C(F)(F)F [diethylmethylammonium trifluoromethanesulfonate]	3.48

###

settings: Crystal; DTA
reported_property: Normal melting temperature (°C)

Reference set (4 entries):
compound	reported_property	display_unit	quantitative_result
CCC[NH+](CC)CC.O=S(=O)([O-])C(F)(F)F [N,N-diethylpropan-1-aminium trifluoromethanesulfonate]	Normal melting temperature	°C	-14.00
CCC[NH+](C)C.O=S(=O)([O-])C(F)(F)F [N,N-dimethylpropan-1-aminium trifluoromethanesulfonate]	Normal melting temperature	°C	20.00
CCC[NH+](C)CCC.O=S(=O)([O-])C(F)(F)F [N-methyl-N-propylpropan-1-aminium trifluoromethanesulfonate]	Normal melting temperature	°C	17.00
C=CC[NH+](CC)CC.O=S(=O)([O-])C(F)(F)F [N,N-diethylprop-2-en-1-aminium trifluoromethanesulfonate]	Normal melting temperature	°C	-14.00

[I] C=CC[NH+](C)C.O=S(=O)([O-])C(F)(F)F [N,N-dimethylprop-2-en-1-aminium trifluoromethanesulfonate]
[II] C=CC[NH+](C)CC=C.O=S(=O)([O-])C(F)(F)F
[III] CC[NH+](C)CC.O=S(=O)([O-])C(F)(F)F [diethylmethylammonium trifluoromethanesulfonate]
-- ask Ordering criterion: Normal melting temperature; begin with the maximum. # output: labels, in the requested order
-- reply I, III, II
(I: 16.00 °C, III: -6.00 °C, II: -19.00 °C)

###

settings: 383.15 K; 101.33 kPa; Liquid
reported_property: electrical conductivity (S/m)

Reference set (5 entries):
molecule	electrical conductivity (S/m)
C=CC[NH+](C)C.O=S(=O)([O-])C(F)(F)F [N,N-dimethylprop-2-en-1-aminium trifluoromethanesulfonate]	4.92
C=CC[NH+](C)CC=C.O=S(=O)([O-])C(F)(F)F	2.74
CC[NH+](C)CC.O=S(=O)([O-])C(F)(F)F [diethylmethylammonium trifluoromethanesulfonate]	3.91
C=CC[NH+](CC)CC.O=S(=O)([O-])C(F)(F)F [N,N-diethylprop-2-en-1-aminium trifluoromethanesulfonate]	2.43
CCC[NH+](CC)CC.O=S(=O)([O-])C(F)(F)F [N,N-diethylpropan-1-aminium trifluoromethanesulfonate]	2.22

[A] CCC[NH+](C)C.O=S(=O)([O-])C(F)(F)F [N,N-dimethylpropan-1-aminium trifluoromethanesulfonate]
[B] CCC[NH+](C)CCC.O=S(=O)([O-])C(F)(F)F [N-methyl-N-propylpropan-1-aminium trifluoromethanesulfonate]
-- ask Just tell me: smaller electrical conductivity value, A or B ? In your reply, give the label of the chosen option.
-- reply B

###

settings: 303.15 K; 101.33 kPa; Liquid; Vibrating tube method
reported_property: mass density (kg/m3)

molecule	reported_property	display_unit	quantitative_result
C=CC[NH+](CC)CC.O=S(=O)([O-])C(F)(F)F [N,N-diethylprop-2-en-1-aminium trifluoromethanesulfonate]	mass density	kg/m3	1247
C=CC[NH+](C)CC=C.O=S(=O)([O-])C(F)(F)F	mass density	kg/m3	1246
CCC[NH+](C)CCC.O=S(=O)([O-])C(F)(F)F [N-methyl-N-propylpropan-1-aminium trifluoromethanesulfonate]	mass density	kg/m3	1203
CCC[NH+](CC)CC.O=S(=O)([O-])C(F)(F)F [N,N-diethylpropan-1-aminium trifluoromethanesulfonate]	mass density	kg/m3	1215
CCC[NH+](C)C.O=S(=O)([O-])C(F)(F)F [N,N-dimethylpropan-1-aminium trifluoromethanesulfonate]	mass density	kg/m3	1269
C=CC[NH+](C)C.O=S(=O)([O-])C(F)(F)F [N,N-dimethylprop-2-en-1-aminium trifluoromethanesulfonate]	mass density	kg/m3	1295
CC[NH+](C)CC.O=S(=O)([O-])C(F)(F)F [diethylmethylammonium trifluoromethanesulfonate]	mass density	kg/m3	1277

###

test: Molar enthalpy of transition or fusion; details: Crystal; DSC
reported_property: Molar enthalpy of transition or fusion (kcal/mol)

Reference set (4 entries):
compound	Molar enthalpy of transition or fusion [kcal/mol]
CCC[NH+](CC)CC.O=S(=O)([O-])C(F)(F)F [N,N-diethylpropan-1-aminium trifluoromethanesulfonate]	5.02
C=CC[NH+](CC)CC.O=S(=O)([O-])C(F)(F)F [N,N-diethylprop-2-en-1-aminium trifluoromethanesulfonate]	5.02
CCC[NH+](C)CCC.O=S(=O)([O-])C(F)(F)F [N-methyl-N-propylpropan-1-aminium trifluoromethanesulfonate]	3.35
CC[NH+](C)CC.O=S(=O)([O-])C(F)(F)F [diethylmethylammonium trifluoromethanesulfonate]	3.82

[P] CCC[NH+](C)C.O=S(=O)([O-])C(F)(F)F [N,N-dimethylpropan-1-aminium trifluoromethanesulfonate]
[Q] C=CC[NH+](C)CC=C.O=S(=O)([O-])C(F)(F)F
-- ask Just tell me: smaller Molar enthalpy of transition or fusion value, P or Q ? In your reply, give the label of the chosen option.
-- reply Q
(Q: 2.63 kcal/mol, P: 4.78 kcal/mol)

###

conditions: 313.15 K; 101.33 kPa; Liquid; Vibrating tube method
reported_property: mass density (kg/m3)

compound	mass density / kg/m3
C=CC[NH+](C)CC=C.O=S(=O)([O-])C(F)(F)F	1231
C=CC[NH+](CC)CC.O=S(=O)([O-])C(F)(F)F [N,N-diethylprop-2-en-1-aminium trifluoromethanesulfonate]	1232
CCC[NH+](C)CCC.O=S(=O)([O-])C(F)(F)F [N-methyl-N-propylpropan-1-aminium trifluoromethanesulfonate]	1189
CCC[NH+](C)C.O=S(=O)([O-])C(F)(F)F [N,N-dimethylpropan-1-aminium trifluoromethanesulfonate]	1254
CCC[NH+](CC)CC.O=S(=O)([O-])C(F)(F)F [N,N-diethylpropan-1-aminium trifluoromethanesulfonate]	1201
CC[NH+](C)CC.O=S(=O)([O-])C(F)(F)F [diethylmethylammonium trifluoromethanesulfonate]	1262
C=CC[NH+](C)C.O=S(=O)([O-])C(F)(F)F [N,N-dimethylprop-2-en-1-aminium trifluoromethanesulfonate]	1280

###

conditions: 403.15 K; 101.33 kPa; Liquid
reported_property: electrical conductivity (S/m)

molecule	display_unit	electrical conductivity
C=CC[NH+](C)C.O=S(=O)([O-])C(F)(F)F [N,N-dimethylprop-2-en-1-aminium trifluoromethanesulfonate]	S/m	6.19
CC[NH+](C)CC.O=S(=O)([O-])C(F)(F)F [diethylmethylammonium trifluoromethanesulfonate]	S/m	4.73

[I] C=CC[NH+](C)CC=C.O=S(=O)([O-])C(F)(F)F
[II] CCC[NH+](C)C.O=S(=O)([O-])C(F)(F)F [N,N-dimethylpropan-1-aminium trifluoromethanesulfonate]
-- ask Just tell me: smaller electrical conductivity value, I or II ? In your reply, give the label of the chosen option.
-- reply I

###

conditions: 298.15 K; 101.33 kPa; Liquid; Vibrating tube method
reported_property: mass density (kg/m3)

compound	display_unit	mass density
C=CC[NH+](C)CC=C.O=S(=O)([O-])C(F)(F)F	kg/m3	1253
CCC[NH+](C)C.O=S(=O)([O-])C(F)(F)F [N,N-dimethylpropan-1-aminium trifluoromethanesulfonate]	kg/m3	1276
CCC[NH+](CC)CC.O=S(=O)([O-])C(F)(F)F [N,N-diethylpropan-1-aminium trifluoromethanesulfonate]	kg/m3	1222
CC[NH+](C)CC.O=S(=O)([O-])C(F)(F)F [diethylmethylammonium trifluoromethanesulfonate]	kg/m3	1284
C=CC[NH+](CC)CC.O=S(=O)([O-])C(F)(F)F [N,N-diethylprop-2-en-1-aminium trifluoromethanesulfonate]	kg/m3	1255
CCC[NH+](C)CCC.O=S(=O)([O-])C(F)(F)F [N-methyl-N-propylpropan-1-aminium trifluoromethanesulfonate]	kg/m3	1211
C=CC[NH+](C)C.O=S(=O)([O-])C(F)(F)F [N,N-dimethylprop-2-en-1-aminium trifluoromethanesulfonate]	kg/m3	1303

###

conditions: 423.15 K; 101.33 kPa; Liquid
reported_property: electrical conductivity (S/m)

[P] CC[NH+](C)CC.O=S(=O)([O-])C(F)(F)F [diethylmethylammonium trifluoromethanesulfonate]
[Q] CCC[NH+](CC)CC.O=S(=O)([O-])C(F)(F)F [N,N-diethylpropan-1-aminium trifluoromethanesulfonate]
-- ask # argmax over electrical conductivity for candidates P and Q In your reply, give the label of the chosen option.
-- reply P
(P: 5.46 S/m, Q: 3.57 S/m)
